# System: CMV-luc
# protocol.details: Secondary assays, Bright-Glo luciferase in SC cells
# Assay type: cell-based
# run.parameters: minimum CMV-luc luciferase in SC cells over 12 doses
property.label: min SC luc (%)
Express it in %; write the number only.

Give reported min SC luc value for `O=C(O)c1ccc2c(c1)nc(Nc1cccc(Cl)c1)c1ccncc12`
93.78

Please report the measured min SC luc for `Cc1ccc2nc(NCCN)c3ncc(C)n3c2c1`
96.02

Quote min SC luc reported for `Cc1cccc(Nc2nc(N[C@@H]3CCCC[C@@H]3N)ncc2C(N)=O)c1` please.
86.82

Fill in reported min SC luc for this entry: `C[C@@H]1O[C@@H](O[C@@H]2C=C3CC[C@@H]4[C@H](CC[C@]5(C)[C@@H](c6ccc(=O)oc6)CC[C@]45O)[C@@]3(C)CC2)[C@H](O)[C@H](O)[C@H]1O`
122

###

# Test system: ATXN2-luc
# run.parameters: Table 5S; pilot screen, H2 cells, 10 μM
property.label: SD from Mean (SD)
Respond with the bare value in SD.

# return SD from Mean of CC(=O)O[C@H]1C[C@H](O[C@H]2[C@@H](O)C[C@H](O[C@H]3[C@@H](O)C[C@H](O[C@H]4CC[C@@]5(C)[C@H](CC[C@@H]6[C@@H]5C[C@@H](O)[C@]5(C)[C@@H](C7=CC(=O)OC7)CC[C@]65O)C4)O[C@@H]3C)O[C@@H]2C)O[C@H](C)[C@H]1O[C@@H]1O[C@H](CO)[C@@H](O)[C@H](O)[C@H]1O [LANATOSIDE C] (system: ATXN2-luc)
−4.323

Recall the reported SD from Mean of C[C@]12CC[C@H](O)C[C@H]1CC[C@@H]1[C@@H]2CC[C@]2(C)[C@@H](C3=CC(=O)OC3)CC[C@]12O [Digitoxigenin] when tested on ATXN2-luc.
−3.629

###

# Test system: ATXN2-luc
# run.parameters: Table 5S; pilot screen, H2 cells, 10 μM
Structures can show the parent of a compound that is named as a salt.
property.label: SD from Mean (SD)
Report only the number, with the unit SD understood.

Please give the documented SD from Mean of COc1ccc(CN2CCN(C(c3ccc(F)cc3)c3ccc(F)cc3)CC2)c(OC)c1OC [LOMERIZINE DiHCl]
−2.782

Please look at this molecule and report its SD from Mean: C[C@]12CC[C@H](O)C[C@H]1CC[C@@H]1[C@@H]2C[C@@H](O)[C@]2(C)[C@@H](C3=CC(=O)OC3)CC[C@]12O [Digoxigenin]
−3.264

# return recorded SD from Mean for entry C/C1=C2/[N-][C@H]([C@H](CC(N)=O)[C@@]2(C)CCC(=O)NC[C@@H](C)OP(=O)([O-])O[C@H]2[C@@H](O)[C@@H](n3cnc4cc(C)c(C)cc43)O[C@@H]2CO)[C@]2(C)N=C(/C(C)=C3N=C(/C=C4N=C1[C@@H](CCC(N)=O)C\4(C)C)[C@@H](CCC(N)=O)[C@]\3(C)CC(N)=O)[C@@H](CCC(N)=O)[C@]2(C)CC(N)=O.[Co] [COBALAMINE]
−5.111

State its SD from Mean: C1CCC(N=C(NC23CC4CC(CC(C4)C2)C3)N2CCOCC2)CC1.Cl [U-37883A]
−4.965

Input COc1ccc(CCCOC(Cn2ccnc2)c2ccc(OC)cc2)cc1 (stereo not shown) [SKF-96365] , output reported SD from Mean.
−2.721

Look up and state reported SD from Mean for CC(C)=CCc1c(O)cc2occ(-c3ccc4c(c3)OCO4)c(=O)c2c1O [DERRUBONE]
−3.621

Name the recorded SD from Mean of the molecule listed here: CC[C@H]1CN2CCc3cc(OC)c(OC)cc3[C@@H]2C[C@@H]1C[C@H]1NCCc2cc(OC)c(OC)cc21 [Emetine dihydrochloride]
−4.840

Quickly give me recorded SD from Mean for CO[C@H]1C[C@H](O[C@H]2CC[C@]3(C=O)[C@H]4CC[C@]5(C)[C@@H](C6=CC(=O)OC6)CC[C@]5(O)[C@@H]4CC[C@]3(O)C2)O[C@H](C)[C@H]1O [CYMARIN]
−4.099

Supply recorded SD from Mean for CO[C@H]1[C@H](O)[C@H](O[C@H]2CC[C@@]3(C=O)[C@H](CC[C@@H]4[C@@H]3CC[C@]3(C)[C@@H](C5=CC(=O)OC5)CC[C@]43O)C2)O[C@@H](C)[C@@H]1O [PERUVOSIDE] here.
−4.038

Tell us which SD from Mean value is on record for C[C@]12CC[C@H]3[C@@H](CC[C@]4(O)C[C@@H](O)CC[C@]34C=O)[C@@]1(O)CC[C@@H]2C1=CC(=O)OC1 [STROPHANTHIDIN]
−4.451

Provide SD from Mean value for the following molecule: CC(N/C(=N\C#N)Nc1ccncc1)C(C)(C)C (stereo not shown)
−4.875

Determine its reported SD from Mean: C[C@H]1O[C@@H](O[C@H]2CC[C@]3(C=O)[C@H]4CC[C@]5(C)[C@@H](C6=CC(=O)OC6)CC[C@]5(O)[C@@H]4CC[C@]3(O)C2)C[C@H](O)[C@@H]1O [Helveticoside]
−2.733

Look up and report measured SD from Mean for this entry: C[C@@H]1O[C@@H](O[C@H]2C[C@@H](O)[C@]3(CO)[C@H]4[C@H](O)C[C@]5(C)[C@@H](C6=CC(=O)OC6)CC[C@]5(O)[C@@H]4CC[C@]3(O)C2)[C@H](O)[C@H](O)[C@H]1O [OUABAIN]
−3.832

Quote SD from Mean reported for CO[C@H]1[C@@H](O)[C@@H](C)O[C@@H](O[C@H]2CC[C@]3(C)[C@H]4CC[C@]5(C)[C@@H](C6=CC(=O)OC6)CC[C@]5(O)[C@@H]4CC[C@]3(O)C2)[C@@H]1O [EMICYMARIN] please.
−3.080

Give a short answer stating reported SD from Mean for C[C@H]1O[C@@H](O[C@H]2[C@@H](O)C[C@H](O[C@H]3[C@@H](O)C[C@H](O[C@H]4CC[C@@]5(C)[C@H](CC[C@@H]6[C@@H]5CC[C@]5(C)[C@@H](C7=CC(=O)OC7)[C@@H](O)C[C@]65O)C4)O[C@@H]3C)O[C@@H]2C)C[C@H](O)[C@@H]1O [GITOXIN] .
−4.086

Write down SD from Mean measured for item C[n+]1cc2c3c(ccc2c2ccc4cc5c(cc4c21)OCO5)OCO3 [Sanguinarine]
−2.689

###

# Tested on: ATXN2-luc
# run.parameters: Table 5S; pilot screen, H2 cells, 10 μM
So I've got a bunch of compounds here, and I need their SD from Mean values.
API: value field is a number in SD; no unit string.

Supply measured SD from Mean of CC(=O)O[C@H]1CC[C@@]2(C)[C@H](CC[C@@H]3[C@@H]2CC[C@]2(C)[C@@H](C4=CC(=O)OC4)[C@@H](OC(C)=O)C[C@]32O)C1 [GITOXIGENIN DIACETATE] in your reply.
−4.261

Check the records and state SD from Mean for COC(=O)C1=C(C)NC(C)=C(C(=O)OCCN(C)Cc2ccccc2)C1c1cccc([N+](=O)[O-])c1 (stereo not drawn) [NICARDIPINE]
−2.782

Retrieve SD from Mean measured for CC(C)c1cc(/C=C(\C#N)C(=O)NCCCc2ccccc2)cc(C(C)C)c1O [SU1498] and print it.
−4.885

For the compound CS(=O)(=O)Nc1ccc(Cc2noc(-c3ccc4[nH]cc(CCN)c4c3)n2)cc1 [L-694 247] , give its reported SD from Mean.
−3.156

Recall and state the measured SD from Mean for C[C@@H]1O[C@@H](O[C@H]2CC[C@]3(C=O)[C@H]4CC[C@]5(C)[C@@H](C6=CC(=O)OC6)CC[C@]5(O)[C@@H]4CC[C@]3(O)C2)[C@H](O)[C@H](O)[C@H]1O [CONVALLATOXIN] .
−3.689

Quick one: give measured SD from Mean for C[C@@H]1O[C@@H](O[C@@H]2C=C3CC[C@@H]4[C@H](CC[C@]5(C)[C@@H](c6ccc(=O)oc6)CC[C@]45O)[C@@]3(C)CC2)[C@H](O)[C@H](O)[C@H]1O [Proscillaridin A]
−7.684

###

# Test system: ATXN2-luc
# protocol.details: cells
# run.parameters: read-out: Luc at 1 μm
property.label: activity at 1 µM (%)
Field format: number, assumed %, no unit text.

Tell me activity at 1 µM reported for `CO[C@H]1C[C@H](O[C@H]2CC[C@]3(C=O)[C@H]4CC[C@]5(C)[C@@H](C6=CC(=O)OC6)CC[C@]5(O)[C@@H]4CC[C@]3(O)C2)O[C@H](C)[C@H]1O`
14

Quick one: give measured activity at 1 µM for COc1ccc(CCCOC(Cn2ccnc2)c2ccc(OC)cc2)cc1 (stereo not drawn)
104

Could you please provide reported activity at 1 µM for `C[C@H]1O[C@@H](O[C@H]2[C@@H](O)C[C@H](O[C@H]3[C@@H](O)C[C@H](O[C@H]4CC[C@@]5(C)[C@H](CC[C@@H]6[C@@H]5CC[C@]5(C)[C@@H](C7=CC(=O)OC7)[C@@H](O)C[C@]65O)C4)O[C@@H]3C)O[C@@H]2C)C[C@H](O)[C@@H]1O` ? Thanks!
21

Answer with the recorded activity at 1 µM of CC(=O)Oc1cccc(O)c1 [RESORCINOL MONOACETATE] only.
120

Determine its reported activity at 1 µM: CC(=O)O[C@H]1CC[C@@]2(C)[C@H](CC[C@@H]3[C@@H]2CC[C@]2(C)[C@@H](C4=CC(=O)OC4)[C@@H](OC(C)=O)C[C@]32O)C1 [GITOXIGENIN DIACETATE]
27

For the molecule `CC(C)=CCc1c(O)cc2occ(-c3ccc4c(c3)OCO4)c(=O)c2c1O` , give its reported activity at 1 µM.
11
